Biological target: Gamma-aminobutyric acid receptor subunit alpha-5/beta-2/gamma-2 (Homo sapiens, UniProt P18507+P31644+P47870)
Experiment: Displacement of [3H]flunitrazepam from human recombinant alpha5beta2gamma2 GABAA receptor expressed in HEK cell membrane by competitive radioligand binding assay
Assay type: cell membranes
Property: Ki (nM)
Numbers only, in nM.

INSERT INTO assay_data (chemical_structure, obs_value) VALUES
  ('O=C1CN=C(c2ccccc2F)c2cc(Br)ccc2N1', 0.26),
  ('CN1C(=O)CN=C(c2ccccc2)c2cc(Br)ccc21', 7.7),
  ('C#Cc1ccc2c(c1)C(c1ccccc1Cl)=NCc1nnc(C)n1-2', 4.4),
  ('O=C1CN=C(c2ccccc2Cl)c2cc(Br)ccc2N1', 0.68);

I need Ki for every entry listed below, if you could help.
1. C#Cc1ccc2c(c1)C(c1ccccn1)=NCc1nnc(C)n1-2
2. C#Cc1ccc2c(c1)C(c1ccccc1F)=NCC(=O)N2C

1. 45.6
2. 0.8

---

Field: Ki. Provide a value for each of the compounds that follow.
Target: GABA-A receptor; alpha-1/beta-2/gamma-2 (Homo sapiens, UniProt P14867+P18507+P47870)
Assay: Displacement of [3H]flunitrazepam from human recombinant alpha1beta2gamma2 GABAA receptor expressed in HEK cell membrane by competitive radioligand binding assay
Answers are plain numbers, in nM.

INSERT INTO results (chemical_structure, property, obs_value) VALUES
  ('C#Cc1ccc2c(c1)C(c1ccccc1Cl)=NCC(=O)N2C', 'Ki', 1.6),
  ('C#Cc1ccc2c(c1)C(c1ccccc1F)=NCc1nnc(C)n1-2', 'Ki', 6.3),
  ('O=C1CN=C(c2ccccc2F)c2cc(Br)ccc2N1', 'Ki', 0.26),
  ('C#Cc1ccc2c(c1)C(c1ccccc1)=NCc1nnc(C)n1-2', 'Ki', 36.4),
  ('C#Cc1ccc2c(c1)C(c1ccccc1Cl)=NCc1nnc(C)n1-2', 'Ki', 3.3);

Let us examine a further case.
Request: Ki, test system GABA-A receptor; alpha-1/beta-2/gamma-2 (Homo sapiens, UniProt P14867+P18507+P47870), entry C#Cc1ccc2c(c1)C(c1ccccc1)=NCC(=O)N2C
76.3

---

Field: Ki. Provide a value for each of the molecules that follow.
Target: GABA A receptor alpha-2/beta-2/gamma-2 (Homo sapiens, UniProt P18507+P47869+P47870)
Sequence (P47870 whole entry): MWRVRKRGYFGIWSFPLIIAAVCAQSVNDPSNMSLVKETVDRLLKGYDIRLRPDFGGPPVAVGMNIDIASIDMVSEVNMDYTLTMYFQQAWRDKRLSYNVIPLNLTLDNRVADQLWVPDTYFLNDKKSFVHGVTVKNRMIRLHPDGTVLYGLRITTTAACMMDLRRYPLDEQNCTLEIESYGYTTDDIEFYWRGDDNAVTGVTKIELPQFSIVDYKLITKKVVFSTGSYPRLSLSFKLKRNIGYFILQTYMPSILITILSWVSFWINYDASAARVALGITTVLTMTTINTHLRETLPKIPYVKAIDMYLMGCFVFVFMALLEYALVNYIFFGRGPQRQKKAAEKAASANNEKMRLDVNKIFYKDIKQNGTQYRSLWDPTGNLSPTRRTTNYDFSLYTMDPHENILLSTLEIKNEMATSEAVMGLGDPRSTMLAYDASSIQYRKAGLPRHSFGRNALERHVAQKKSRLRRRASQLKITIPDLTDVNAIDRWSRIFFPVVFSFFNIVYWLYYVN
Sequence (P18507 whole entry): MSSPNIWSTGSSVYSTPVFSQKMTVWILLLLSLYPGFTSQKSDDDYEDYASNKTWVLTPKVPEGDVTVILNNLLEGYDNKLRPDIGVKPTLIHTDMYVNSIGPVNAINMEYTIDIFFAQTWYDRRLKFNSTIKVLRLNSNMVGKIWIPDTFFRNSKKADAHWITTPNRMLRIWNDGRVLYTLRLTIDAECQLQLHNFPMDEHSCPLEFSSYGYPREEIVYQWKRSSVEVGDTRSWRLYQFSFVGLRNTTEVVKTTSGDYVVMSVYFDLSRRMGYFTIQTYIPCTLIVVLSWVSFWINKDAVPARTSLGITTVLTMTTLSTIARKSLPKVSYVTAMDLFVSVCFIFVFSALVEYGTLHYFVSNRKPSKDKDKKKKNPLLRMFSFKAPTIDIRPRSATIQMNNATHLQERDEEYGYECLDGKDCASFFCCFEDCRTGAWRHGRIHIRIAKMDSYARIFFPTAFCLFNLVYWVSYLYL
Sequence (P47869 whole entry): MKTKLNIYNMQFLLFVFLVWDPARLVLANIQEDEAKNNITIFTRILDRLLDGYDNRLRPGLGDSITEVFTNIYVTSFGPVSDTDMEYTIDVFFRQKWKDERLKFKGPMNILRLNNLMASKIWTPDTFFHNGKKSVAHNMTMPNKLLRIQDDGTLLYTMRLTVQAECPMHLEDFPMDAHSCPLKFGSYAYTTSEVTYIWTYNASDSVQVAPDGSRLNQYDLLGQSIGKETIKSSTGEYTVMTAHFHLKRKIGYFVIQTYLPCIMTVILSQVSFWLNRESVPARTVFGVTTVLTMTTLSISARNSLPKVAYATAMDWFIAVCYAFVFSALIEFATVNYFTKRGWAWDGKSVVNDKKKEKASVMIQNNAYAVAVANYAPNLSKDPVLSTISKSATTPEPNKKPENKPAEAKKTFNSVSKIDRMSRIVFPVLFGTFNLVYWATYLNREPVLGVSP
Assay: Displacement of [3H]flunitrazepam from human recombinant alpha2beta2gamma2 GABAA receptor expressed in HEK cell membrane by competitive radioligand binding assay

INSERT INTO assay_data (molecule, obs_value) VALUES
  ('O=C1CN=C(c2ccccc2)c2ccccc2N1 [RO-052921]', '233 nM');

I need Ki for every entry listed below, if you could help.
1. Cc1nnc2n1-c1ccc(Cl)cc1C(c1ccccc1)=NC2 [ALPRAZOLAM]
2. C#Cc1ccc2c(c1)C(c1ccccn1)=NCc1nnc(C)n1-2

["0.6 nM", "81.3 nM"]

I need Ki for every entry listed below, if you could help.
1. C#Cc1ccc2c(c1)C(c1ccccc1)=NCC(=O)N2C
2. CN1C(=O)CN=C(c2ccccc2)c2ccccc21
3. C[C@@H]1N=C(c2ccccc2)c2cc(Br)ccc2NC1=O
4. C#Cc1ccc2c(c1)C(c1ccccc1Cl)=NCC(=O)N2C

1. 42.1 nM
2. 138 nM
3. 11 nM
4. 0.99 nM

I need Ki for every entry listed below, if you could help.
1. C#Cc1ccc2c(c1)C(c1ccccc1)=NCc1nnc(C)n1-2
2. Cc1nnc2n1-c1ccc(Br)cc1C(c1ccccn1)=NC2
3. C#Cc1ccc2c(c1)C(c1ccccc1F)=NCC(=O)N2C

["25.8 nM", "6.1 nM", "1.2 nM"]

I need Ki for every entry listed below, if you could help.
1. CN1C(=O)CN=C(c2ccccc2)c2cc(Br)ccc21
2. C[C@H]1N=C(c2ccccc2)c2cc(Br)ccc2NC1=O
3. C#Cc1ccc2c(c1)C(c1ccccc1)=N[C@@H](C)c1nnc(C)n1-2
4. O=C1CN=C(c2ccccc2Cl)c2cc(Br)ccc2N1 [PHENAZEPAM]
5. Cc1nnc2n1-c1ccc(Br)cc1C(c1ccccc1)=NC2
6. C#Cc1ccc2c(c1)C(c1ccccc1F)=NCc1nnc(C)n1-2
7. C#Cc1ccc2c(c1)C(c1ccccc1Cl)=NCc1nnc(C)n1-2

1: 9.3 nM; 2: > 3000 nM; 3: 50.1 nM; 4: 0.06 nM; 5: 0.7 nM; 6: 2.1 nM; 7: 0.6 nM

I need Ki for every entry listed below, if you could help.
1. O=C1CN=C(c2ccccc2F)c2cc(Br)ccc2N1
2. Cc1nnc2n1-c1ccc(Br)cc1C(c1ccccc1Cl)=NC2

["0.15 nM", "1 nM"]
